Reference for the values: ChEMBL document CHEMBL3112521

test system: OVCAR-8; experiment: Cytotoxicity against human OVCAR8 cells assessed as growth inhibition at 5 ug/ml by MTT assay; type: functional; conditions: read-out: GI
Label scheme for inhibition of growth at 5 µg/mL: lower than 20% is Criterion not met, 20% and above is Criterion met.

>>> print(df.to_string())
                                 smiles_text     assigned_class
 0          Clc1ccc(/C=N/Nc2cnc3ccccc3n2)cc1      Criterion met
 1     COc1ccc(/C=N/Nc2cnc3ccccc3n2)c(Cl)c1O  Criterion not met
 2          Oc1cccc(/C=N/Nc2cnc3ccccc3n2)c1O      Criterion met
 3       Oc1cc(/C=N/Nc2cnc3ccccc3n2)cc(O)c1O  Criterion not met
 4        Clc1cccc(Cl)c1/C=N/Nc1cnc2ccccc2n1      Criterion met
 5          Brc1ccc(/C=N/Nc2cnc3ccccc3n2)cc1  Criterion not met
 6        Oc1ccc(/C=N/Nc2cnc3ccccc3n2)c(O)c1      Criterion met
 7             Oc1ccccc1/C=N/Nc1cnc2ccccc2n1      Criterion met
 8  O=[N+]([O-])c1cccc(/C=N/Nc2cnc3ccccc3n2)c1  Criterion not met
 9    COc1cc(/C=N/Nc2cnc3ccccc3n2)cc(OC)c1OC      Criterion met
10            Brc1ccccc1/C=N/Nc1cnc2ccccc2n1  Criterion not met
11           Cc1ccc(/C=N/Nc2cnc3ccccc3n2)cc1      Criterion met
12      COc1ccc(/C=N/Nc2cnc3ccccc3n2)c(OC)c1  Criterion not met
13         N#Cc1cccc(/C=N/Nc2cnc3ccccc3n2)c1  Criterion not met
14  O=[N+]([O-])c1ccc(O)c(/C=N/Nc2cnc3ccccc3n2)c1      Criterion met
15        Oc1ccc(O)c(/C=N/Nc2cnc3ccccc3n2)c1      Criterion met
16        Cc1ccc(/C=N/Nc2cnc3ccccc3n2)c(O)c1      Criterion met
17        COc1ccc(/C=N/Nc2cnc3ccccc3n2)cc1OC  Criterion not met
18         Oc1ccc(/C=N/Nc2cnc3ccccc3n2)cc1Cl      Criterion met
19           Oc1ccc(/C=N/Nc2cnc3ccccc3n2)cc1      Criterion met
20           Fc1cccc(/C=N/Nc2cnc3ccccc3n2)c1  Criterion not met
21          Brc1cccc(/C=N/Nc2cnc3ccccc3n2)c1  Criterion not met
22          COc1cccc(/C=N/Nc2cnc3ccccc3n2)c1      Criterion met
23        COc1cccc(OC)c1/C=N/Nc1cnc2ccccc2n1      Criterion met
24      COc1ccc(OC)c(/C=N/Nc2cnc3ccccc3n2)c1  Criterion not met
25            COc1ccccc1/C=N/Nc1cnc2ccccc2n1      Criterion met

* * *

test system: SF-295; assay: Cytotoxicity against human SF295 cells assessed as growth inhibition by MTT assay; type: functional, cell-based
Recorded IC50, one value per entry.
Observed property: IC50 (nM)

In [3]: df
Out[3]:
                                smiles_text  numeric_readout
0       COc1ccc(/C=N/Nc2cnc3ccccc3n2)c(O)c1            15700
1             Oc1ccccc1/C=N/Nc1cnc2ccccc2n1             2310
2        Clc1cccc(/C=N/Nc2cnc3ccccc3n2)c1Cl             6200
3  O=[N+]([O-])c1ccc(O)c(/C=N/Nc2cnc3ccccc3n2)c1             2110
4          Oc1cccc(/C=N/Nc2cnc3ccccc3n2)c1O             1260

* * *

tested on: OVCAR-8; test: Cytotoxicity against human OVCAR8 cells assessed as growth inhibition by MTT assay; assay type: functional, cell-based
Lab note: cut-off is 3 µM. Strictly less in IC50 is t. Exactly 3 µM or more is f.

In [3]: df
Out[3]:
                                smiles_text  system_name  assigned_class
0             Oc1ccccc1/C=N/Nc1cnc2ccccc2n1      OVCAR-8               f
1  O=[N+]([O-])c1ccc(O)c(/C=N/Nc2cnc3ccccc3n2)c1      OVCAR-8               t
2          Oc1cccc(/C=N/Nc2cnc3ccccc3n2)c1O      OVCAR-8               t
3        Clc1cccc(/C=N/Nc2cnc3ccccc3n2)c1Cl      OVCAR-8               f
4  COc1cccc2c1C(=O)c1c(O)c3c(c(O)c1C2=O)C[C@@](O)(C(=O)CO)C[C@@H]3O[C@H]1C[C@H](N)[C@H](O)[C@H](C)O1      OVCAR-8               t
5       COc1ccc(/C=N/Nc2cnc3ccccc3n2)c(O)c1      OVCAR-8               f

* * *

Recorded inhibition of growth at 5 µg/mL, one value per entry.
system: OVCAR-8; test: Cytotoxicity against human OVCAR8 cells assessed as growth inhibition at 5 ug/ml by MTT assay; type: functional; conditions: read-out: GI
Observed property: inhibition of growth at 5 µg/mL (%)

>>> df
                                smiles_text  system_name  output_unit  numeric_readout
0  O=[N+]([O-])c1cc(/C=N/Nc2cnc3ccccc3n2)ccc1Cl      OVCAR-8            %                9
1        Clc1ccc(/C=N/Nc2cnc3ccccc3n2)cc1Cl      OVCAR-8            %                0
2         N#Cc1ccc(/C=N/Nc2cnc3ccccc3n2)cc1      OVCAR-8            %             50.9
3           Cc1cccc(/C=N/Nc2cnc3ccccc3n2)c1      OVCAR-8            %             39.9
4        Clc1cccc(/C=N/Nc2cnc3ccccc3n2)c1Cl      OVCAR-8            %              100
